- Tested on: CP237
- ASSAY_EXPLANATION: qHTS profiling for inhibitors of Plasmodium falciparum proliferation (AID 504749); note: nearly all actives have a fitted effect of over 60% in size
- MEASUREMENT_CONDITIONS: P. falciparum in erythrocytes, SYBR Green DNA, 72 h; series mostly up to 28.7 µM
Results filed as inconclusive are left out. Calls of active or inactive are those of the source. Calls come from the whole dose curve; as a rule, active = well fitted inhibition curve with a large enough effect; inconclusive = small, poorly fitted or top-dose-only effect; inactive = flat fitted curve, though single readings scatter.
Assign a class; possible classes are active, inactive

The following compounds have reported results that may help.
NCCc1ccn[nH]1 = inactive
CC(C)(C(=O)c1cccnc1)c1cccnc1 = inactive
CCCCCC=CCC=CCCCCCCCC(=O)OCC = inactive
C1CCc2nnnn2CC1 = inactive
Cc1ncc(CSSCc2cnc(C)c(O)c2CO)c(CO)c1O = inactive
CCCCCCCCCCCCCCCCCC(=O)OCC(O)CO (configuration not stated) = inactive

Now consider a different compound.
Query :: Recorded test outcome, item `CCCCCCC[N+](CC)(CC)CCCCc1ccc(Cl)cc1`
Result :: active

* * *

- Tested on: PA-1
- ASSAY_EXPLANATION: Primary qHTS to identify gynecologic anti-cancer compounds using libraries of approved drugs and bioactive compounds (AID 1345084); note: nearly all actives have a fitted effect of over 55% in size
- MEASUREMENT_CONDITIONS: Gynecologic cancer cell panel viability, ATPlite luminescence, 48 h; series mostly up to 57.5 µM
Records with an inconclusive call do not appear. Calls of active or inactive are those of the source. The call rests on the fitted dose curve; in most records, active means well fitted cell-killing curve with a large enough effect; inconclusive means small, poorly fitted or top-dose-only effect, or effect the other way; inactive means flat fitted curve, though single readings scatter.
MEASURED_QUANTITY: outcome

CCCCOc1ccc(OCCCN2CCOCC2)cc1 = inactive
CN(C)CC/C=C1\c2ccccc2Sc2ccc(Cl)cc21 = inactive
CC(C)(Oc1ccc(Cl)cc1)C(=O)O = inactive
CCOC(=O)[C@H](CCc1ccccc1)N[C@@H](C)C(=O)N1Cc2ccccc2C[C@H]1C(=O)O = inactive

Query :: I am curious: what outcome value has been reported for `CC(=O)OCC(=O)NCCCOc1cccc(CN2CCCCC2)c1` ?
Result :: inactive

Query :: # query: outcome of entry `CC(C)N=C(N)/N=C(\N)Nc1ccc(Cl)cc1`
Result :: inactive

* * *

- System: CP215
- ASSAY_EXPLANATION: qHTS profiling for inhibitors of Plasmodium falciparum proliferation (AID 504749); note: nearly all actives have a fitted effect of over 60% in size
- MEASUREMENT_CONDITIONS: P. falciparum in erythrocytes, SYBR Green DNA, 72 h; series mostly up to 28.7 µM
Inconclusive results are not listed. Calls of active or inactive are those of the source. The call rests on the fitted dose curve; in most records, active means well fitted inhibition curve with a large enough effect; inconclusive means small, poorly fitted or top-dose-only effect; inactive means flat fitted curve, though single readings scatter.
Outcome field: choose from active, inactive

For orientation, consider the following solved cases.
CCCCCCCCCCCCCCCCCC(=O)OCC(O)CO (centres undefined) = inactive
NCCc1ccn[nH]1 = inactive
CCOC(=O)/C=C(C)/C=C/C=C(C)/C=C/c1c(C)cc(OC)c(C)c1C = inactive

Query :: State the result this test recorded for `Nc1ccc(C(=O)Nc2ccccc2N)cc1` .
Result :: inactive

Query :: I'd appreciate the recorded outcome for `NC(=NCCCCCCN=C(N)/N=C(\N)Nc1ccc(Cl)cc1)/N=C(\N)Nc1ccc(Cl)cc1` from this test.
Result :: active

Query :: # lookup: test call for `Cc1c(C)n(CCN(C)C)c2ccc(C(=O)OCCN(C)C)cc12`
Result :: inactive

Query :: Field: outcome | Entry: `C[C@@H]1C[C@H]2[C@@H]3CCC4=CC(=O)C=C[C@]4(C)[C@@]3(F)[C@@H](O)C[C@]2(C)[C@H]1C(=O)CO`
Result :: inactive

Query :: Query: recorded result category for `CCN(CC)CCNC(=O)COc1ccc(Cl)cc1` in this test
Result :: inactive

Query :: Would you mind telling me which call this test gave `O=C1[C@H]2CCCC[C@H]2C(=O)N1CCCCN1CCN(c2nsc3ccccc23)CC1` ?
Result :: inactive

Query :: Test call for this compound, please: O=C(CCN1CCC(c2ccccc2)C1)c1ccc2c(c1)OCCO2 (centres undefined)
Result :: inactive

Query :: Kindly provide the recorded test outcome for the following compound: `C#C[C@]1(OC(C)=O)CC[C@H]2[C@@H]3CCC4=C[C@@H](OC(C)=O)CC[C@@H]4[C@H]3CC[C@@]21C`
Result :: inactive

* * *

- System: AS120
- ASSAY_EXPLANATION: qHTS profiling for inhibitors of Plasmodium falciparum proliferation (AID 504749); note: nearly all actives have a fitted effect of over 60% in size
- MEASUREMENT_CONDITIONS: P. falciparum in erythrocytes, SYBR Green DNA, 72 h; series mostly up to 28.7 µM
Results filed as inconclusive are left out. Active and inactive are the calls of the source. Calls come from the whole dose curve; as a rule, active = well fitted inhibition curve with a large enough effect; inconclusive = small, poorly fitted or top-dose-only effect; inactive = flat fitted curve, though single readings scatter.
API: response.call in active, inactive

O=C(Nc1ccc(Cl)c(Cl)c1)C1CC1 = inactive
O=C1c2ccccc2C(=O)C1c1ccccc1 = inactive
C[C@H]1[C@H](NC(=O)/C(=N/OC(C)(C)C(=O)O)c2csc(N)n2)C(=O)N1S(=O)(=O)O (stereo in doubt) = inactive
NC(=NCCCCCCN=C(N)/N=C(\N)Nc1ccc(Cl)cc1)/N=C(\N)Nc1ccc(Cl)cc1 = active

Query :: Hello, I am checking results. What call was entered for `CC[N+](CC)(CCNC(=O)C(=O)NCC[N+](CC)(CC)Cc1ccccc1Cl)Cc1ccccc1Cl` ?
Result :: active

* * *

- Tested on: astro
- ASSAY_EXPLANATION: Drug repurposing screens with cells derived from glioblastoma tumor samples (AID 1345199); note: nearly all actives have a fitted effect of over 40% in size
- MEASUREMENT_CONDITIONS: viability, ATP luminescence, 48 h; series mostly up to 45.9 µM
Results filed as inconclusive are left out. The source made the active and inactive calls. Calls follow the shape of the dose curve; as a rule, active = well fitted inhibition curve with a large enough effect; inconclusive = small, poorly fitted or top-dose-only effect; inactive = flat fitted curve, though single readings scatter.
// one of active, inactive, no free text

For orientation, consider the following solved cases.
CCOC(=O)COc1ccc2c(C)c(CCN(CC)CC)c(=O)oc2c1Cl = inactive
CC(C)(C)CC(C)(C)c1ccc(OCCOCC[N+](C)(C)Cc2ccccc2)cc1 = active
CCN(CC)CCOc1ccc(C(O)(Cc2ccc(Cl)cc2)c2ccc(C)cc2)cc1 (stereo unspecified) = active
C#C[C@]1(O)CC[C@H]2[C@@H]3CCC4=CC(=O)CC[C@@H]4[C@H]3CC[C@@]21C = inactive
COc1cccc(OC)c1C(=O)N[C@@H]1C(=O)N2[C@@H]1SC(C)(C)[C@@H]2C(=O)O = inactive
CCCCCCCCCCCCCCCC[N+](C)(C)CC = active
Nc1cc(Cl)c(NC2=NCCN2)c(Cl)c1 = inactive
CCN(CCCc1ccccc1)CCCc1ccccc1 = inactive

Query :: # lookup: test call for O=C(OCC(O)CO)c1ccccc1Nc1ccnc2cc(Cl)ccc12 (stereo unspecified)
Result :: inactive

Query :: State the result this test recorded for `CCCCS(=O)(=O)N[C@@H](Cc1ccc(OCCCCC2CCNCC2)cc1)C(=O)O` .
Result :: inactive

Query :: Can you look up the reported call for `CN=C(NC#N)NCCSCc1csc(N=C(N)N)n1` for me?
Result :: inactive

* * *

- Tested on: W2
- ASSAY_EXPLANATION: qHTS profiling for inhibitors of Plasmodium falciparum proliferation (AID 504749); note: nearly all actives have a fitted effect of over 60% in size; note: potency is the fitted concentration of half-maximal effect
- MEASUREMENT_CONDITIONS: P. falciparum in erythrocytes, SYBR Green DNA, 72 h; series mostly up to 28.7 µM
Inconclusive results are not listed. Calls of active or inactive are those of the source. The call rests on the fitted dose curve; in most records, active means well fitted inhibition curve with a large enough effect; inconclusive means small, poorly fitted or top-dose-only effect; inactive means flat fitted curve, though single readings scatter.
MEASURED_QUANTITY: Potency

CN(C)CCCOc1nn(Cc2ccccc2)c2ccccc12 = 2.28 µM (active)
O=C(CCN1CCC(c2ccccc2)C1)c1ccc2c(c1)OCCO2 (configuration not stated) = inactive
CCCCCCCCCCCCCCCCCC(=O)OCC(O)CO (configuration not stated) = inactive
COc1c2occc2c(OC)c2c(=O)cc(C)oc12 = inactive
C[C@]12CCC(=O)C=C1CC[C@H]1[C@@H]3CC[C@](O)(C(=O)CO)[C@@]3(C)C[C@H](O)[C@@]12F = inactive

Query :: Which Potency reading was recorded for the compound `C1CCc2nnnn2CC1` ?
Result :: inactive

* * *

- Test system: P93_24
- ASSAY_EXPLANATION: qHTS profiling for inhibitors of Plasmodium falciparum proliferation (AID 504749); note: nearly all actives have a fitted effect of over 60% in size
- MEASUREMENT_CONDITIONS: P. falciparum in erythrocytes, SYBR Green DNA, 72 h; series mostly up to 28.7 µM
- Method: NIH National Institute of Allergy and Infectious Diseases [NIAID] NIH Chemical Genomics Center [NCGC] […] Because mature erythrocytes lack DNA, only Plasmodium-derived DNA is detected. NCGC Assay Protocol Summary: The SYBR Green viability assay was adapted from a method described previously (Plouffe et al., 2008). […] The following morning, fluorescence intensity at 485(14) nm excitation and 535(25) nm emission wavelengths was measured on an EnVision (Perkin Elmer) plate reader. […]
Results filed as inconclusive are left out. Active and inactive are the calls of the source. The call rests on the fitted dose curve; in most records, active means well fitted inhibition curve with a large enough effect; inconclusive means small, poorly fitted or top-dose-only effect; inactive means flat fitted curve, though single readings scatter.
Reply using exactly one outcome from active, inactive

COC(=O)[C@@H]1CC2=CC(=O)CC[C@]2(C)[C@@]23O[C@@H]2C[C@@]2(C)[C@@H](CC[C@@]24CCC(=O)O4)[C@H]13 = inactive
Cc1c(C)n(CCN(C)C)c2ccc(C(=O)OCCN(C)C)cc12 = inactive
C[C@]12CC[C@@H]3c4ccc(O)cc4CC[C@H]3[C@@H]1CC[C@@H]2O = inactive
C#C[C@]1(OC(C)=O)CC[C@H]2[C@@H]3CCC4=C[C@@H](OC(C)=O)CC[C@@H]4[C@H]3CC[C@@]21C = inactive
CCCCOc1ccc(OCCCN2CCOCC2)cc1 = inactive
O=c1ccc2ccccc2o1 = inactive
Nc1cc(Cl)c(NC2=NCCN2)c(Cl)c1 = inactive
CC[N+](CC)(CCNC(=O)C(=O)NCC[N+](CC)(CC)Cc1ccccc1Cl)Cc1ccccc1Cl = active
CN1C(CCl)Nc2cc(Cl)c(S(N)(=O)=O)cc2S1(=O)=O (stereo not given) = inactive

Query :: Please let me know the test result on file for CCCCN1CCCC1C(=O)Nc1c(C)cc(C)cc1C (stereo not given) .
Result :: inactive
